target: CCNE1 (Homo sapiens, UniProt P24864+P24941); construct: host or cells: HEK293; assay: CCNE1 HIBIT PQ (protein quantification), degradation; format: cell-based; settings: PQ = Protein Quantification
OBSERVATION_TYPE: log10(DC50) (log10 of the value in nM)
Base-10 log of DC50, unit nM.

MOLECULE: CC(C)Oc1c(-c2cn[nH]c2)ncn2nc(Nc3ccc(S(=O)(=O)c4cccc(C(C)N5CCC(c6ccc7c(N8CCC(=O)NC8=O)nn(C)c7c6)CC5)c4)cc3F)nc12 (single isomer, unassigned) [Compound 101]
log10(DC50): 1.14
//
MOLECULE: CC(C)Oc1c(-c2cn[nH]c2)ncn2nc(Nc3ccc(S(=O)(=O)N4CCCC(CN5CCC(c6ccc7c(N8CCC(=O)NC8=O)nn(C)c7c6)CC5(C)C)C4)cc3F)nc12 (stereo not shown)
log10(DC50): 0.09
//
MOLECULE: CC(C)Oc1c(-c2cn[nH]c2)ncn2nc(Nc3ccc(S(=O)(=O)c4cccc(C[C@H]5C[C@@H](c6ccc7c(c6)CN([C@@H]6CCC(=O)NC6=O)C7=O)C5)c4)cc3F)nc12 (stereo in doubt)
log10(DC50): 1.12
//
MOLECULE: CC(C)Oc1c(-c2cn[nH]c2)ncn2nc(N[C@H]3CCN(S(=O)(=O)c4cccc(CN5CCN(c6ccc7c(N8CCC(=O)NC8=O)nn(C)c7c6)CC5C)c4)C[C@H]3C)nc12 (stereo partly shown)
log10(DC50): 0.97
//
MOLECULE: CC(C)Oc1c(-c2cn[nH]c2)ncn2nc(Nc3ccc(S(=O)(=O)N(C)CCCN4CCC(c5cccc6c5n(C)c(=O)n6C5CCC(=O)NC5=O)CC4)cc3F)nc12 (racemic)
log10(DC50): -0.19

With CCNE1 (Homo sapiens, UniProt P24864+P24941) as the test system, provide measured log10(DC50) for this molecule: CC(C)Oc1c(-c2cn[nH]c2)ncn2nc(Nc3ccc(S(=O)(=O)N(C)CCCN4CCN(c5ccc6c(c5)n(C)c(=O)n6C5CCC(=O)NC5=O)C[C@H]4C)cc3F)nc12 (stereo partly shown)
0.09

With CCNE1 (Homo sapiens, UniProt P24864+P24941) as the test system, provide measured log10(DC50) for this molecule: CC(C)Oc1c(-c2cn[nH]c2)ncn2nc(Nc3ccc(S(=O)(=O)c4cccc(N5CCC(CN6CCN(c7ccc8c(c7)CN(C7CCC(=O)NC7=O)C8=O)CC6)CC5)c4)cc3F)nc12 (racemic)
1.04

With CCNE1 (Homo sapiens, UniProt P24864+P24941) as the test system, provide measured log10(DC50) for this molecule: CC(C)Oc1c(-c2cn[nH]c2)ncn2nc(Nc3ccc(S(=O)(=O)N(C)CCCN4C5CCC4CN(c4ccc6c(c4)n(C)c(=O)n6C4CCC(=O)NC4=O)C5)cc3F)nc12 (stereo not shown)
0.02

With CCNE1 (Homo sapiens, UniProt P24864+P24941) as the test system, provide measured log10(DC50) for this molecule: CC(C)Oc1c(-c2cn[nH]c2)ncn2nc(Nc3ccc(S(=O)(=O)c4cccc(CN5CCN(c6ccc7c(N8CCC(=O)NC8=O)nn(C)c7c6)C(C(C)C)C5)c4)cc3F)nc12 (racemic)
1.98

With CCNE1 (Homo sapiens, UniProt P24864+P24941) as the test system, provide measured log10(DC50) for this molecule: CC(C)Oc1c(-c2cn[nH]c2)ncn2nc(Nc3ccc(S(=O)(=O)N(C)CCCN4CCN(c5ccc6c(c5)n(C)c(=O)n6C5CCC(=O)NC5=O)C[C@@H]4C(C)C)cc3F)nc12 (stereo partly shown)
0.25

With CCNE1 (Homo sapiens, UniProt P24864+P24941) as the test system, provide measured log10(DC50) for this molecule: CC(C)Oc1c(-c2cn[nH]c2)ncn2nc(Nc3ccc(S(=O)(=O)N4CCCC(CN5CCC(c6ccc7c(N8CCC(=O)NC8=O)nn(C)c7c6)CC5)C4)cc3F)nc12 (racemic) [Compound 87]
0.15

With CCNE1 (Homo sapiens, UniProt P24864+P24941) as the test system, provide measured log10(DC50) for this molecule: CC(C)Oc1c(-c2cn[nH]c2)ncn2nc(Nc3ccc(S(=O)(=O)c4cccc(C[C@H]5C[C@H](c6ccc7c(c6)CN([C@H]6CCC(=O)NC6=O)C7=O)C5)c4)cc3F)nc12 (stereo in doubt)
2.00

With CCNE1 (Homo sapiens, UniProt P24864+P24941) as the test system, provide measured log10(DC50) for this molecule: CC(C)Oc1c(-c2cn[nH]c2)ncn2nc(NC3CCN(S(=O)(=O)N4CCC(CN5CCC(c6cccc7c6n(C)c(=O)n7C6CCC(=O)NC6=O)CC5)CC4)CC3)nc12 (racemic)
-0.06

With CCNE1 (Homo sapiens, UniProt P24864+P24941) as the test system, provide measured log10(DC50) for this molecule: CC(C)Oc1c(-c2cn[nH]c2)ncn2nc(Nc3ccc(S(=O)(=O)N4CCC5(CCN(C6CCN(c7ccc8c(c7)n(C)c(=O)n8C7CCC(=O)NC7=O)CC6)C5)C4)cc3F)nc12 (stereo not shown)
1.34
